test: Protein binding (plasma equilibrium dialysis); format: in vitro ADME; conditions: 5 hours at 37° C., read-out: Protein Binding Fraction Bound (converted)
Answer each item with its documented fraction unbound at 5 h, 1 μM.
Respond with the number and no other words.

Input CCCC(C)c1cccc(Oc2[nH]nnc2C(=O)O)c1 (centres unmarked) , output reported fraction unbound at 5 h, 1 μM.
0.003

Please indicate fraction unbound at 5 h, 1 μM recorded for O=C(O)c1nn[nH]c1Oc1cncc(-c2ccccc2)c1
0.009

Give a short answer stating reported fraction unbound at 5 h, 1 μM for O=C(O)c1nn[nH]c1Oc1cccc(-c2cccnc2)c1 .
0.221

Please give the documented fraction unbound at 5 h, 1 μM of O=C(O)c1nn[nH]c1Oc1ccc(-c2ccc3c(c2)OCO3)cc1
0.007

Query fraction unbound at 5 h, 1 μM for COc1cc(-c2ccc(Oc3[nH]nnc3C(=O)O)cc2)ccc1F
0.01

====

experiment: Protein binding (plasma equilibrium dialysis); type: in vitro ADME; settings: 5 hours at 37° C., read-out: Protein Binding Fraction Bound (converted)
metricName: fraction unbound at 5 h, 1 μM
Please reply with the value in numeric form only.

Item C=Cc1ccc(Oc2[nH]nnc2C(=O)O)cc1 : provide fraction unbound at 5 h, 1 μM
0.012

Supply fraction unbound at 5 h, 1 μM value. Item: CCCC(C)c1ccc(Oc2[nH]nnc2C(=O)O)cc1 (stereo not shown)
0.003

Please indicate fraction unbound at 5 h, 1 μM recorded for COc1ccc(-c2ccc(Oc3[nH]nnc3C(=O)O)cc2)cc1
0.103

Look up fraction unbound at 5 h, 1 μM of CC(C)=Cc1ccc(Oc2[nH]nnc2C(=O)O)cc1 and report it.
0.002

Specify reported fraction unbound at 5 h, 1 μM for the compound shown: CC(C)=Cc1cccc(Oc2[nH]nnc2C(=O)O)c1
0.002

Given O=C(O)c1nn[nH]c1Oc1ccc(S(F)(F)(F)(F)F)cc1 , respond with its fraction unbound at 5 h, 1 μM.
0.006

Fill in fraction unbound at 5 h, 1 μM for record O=C(O)c1nn[nH]c1Oc1ccc(-c2ccccc2)nc1
0.014

Please give measured fraction unbound at 5 h, 1 μM of the following entry: CCC(CC)c1cccc(Oc2[nH]nnc2C(=O)O)c1
0.006

Respond only with fraction unbound at 5 h, 1 μM recorded for O=C(O)c1nn[nH]c1Oc1cccc(S(F)(F)(F)(F)F)c1
0.01

Find the measured fraction unbound at 5 h, 1 μM of CC(C)Cc1ccc(Oc2[nH]nnc2C(=O)O)cc1 and report it.
0.002

====

Would you kindly list pIC50 for each of these compounds?
target: recombinant full-length human hydroxyacid oxidase 1 (HAO1), the equivalent of hGOX (Homo sapiens (Human), UniProt Q9UJM8); experiment: In-vitro human glycolate oxidase (hGOX) assay (Amplex red/HRP fluorescence); assay type: biochemical
Sequence (Q9UJM8 whole entry): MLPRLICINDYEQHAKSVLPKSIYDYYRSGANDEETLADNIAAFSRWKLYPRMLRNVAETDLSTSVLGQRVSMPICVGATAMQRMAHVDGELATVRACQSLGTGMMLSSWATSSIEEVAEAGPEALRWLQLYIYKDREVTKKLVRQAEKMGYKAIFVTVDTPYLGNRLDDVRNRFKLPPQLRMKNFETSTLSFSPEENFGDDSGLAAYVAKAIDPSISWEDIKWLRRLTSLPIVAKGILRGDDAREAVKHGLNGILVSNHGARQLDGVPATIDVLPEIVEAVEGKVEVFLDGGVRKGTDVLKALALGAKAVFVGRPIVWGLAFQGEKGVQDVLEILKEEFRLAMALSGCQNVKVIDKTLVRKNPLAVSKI
Please treat pIC50 as minus the base-10 logarithm of the molar concentration.

Please report the measured pIC50 for O=C(O)c1nn[nH]c1Sc1ccc(Cl)cc1 [Example I-001]
6.96

Tell me measured pIC50 for O=C(O)c1nn[nH]c1Oc1cccc(C2CCCCC2)c1 [Example I-268] please.
7.29

Return the recorded pIC50 value; entry: O=C(O)c1nn[nH]c1Oc1ccc(C2CCCC2)cc1 [Example I-265]
7.60

Report pIC50, nothing else, for this compound: O=C(O)c1nn[nH]c1Oc1ccc(C2CC2)cc1 [Example I-294]
7.28

Determine from records and report pIC50 for CC(C)=Cc1ccc(Oc2[nH]nnc2C(=O)O)cc1 [Example I-287]
7.70

Retrieve pIC50 measured for COc1ccc(-c2ccc(Oc3[nH]nnc3C(=O)O)cc2)cc1 [Example I-153] and print it.
8.00

Output measured pIC50 for this item: O=C(O)c1nn[nH]c1Oc1cccc(-c2ccc(Cl)cc2)c1 [Example I-252]
7.89

Answer with the recorded pIC50 of COc1cc(-c2ccc(Oc3[nH]nnc3C(=O)O)cc2)ccc1F [Example I-271] only.
8.15

// fetch pIC50 given entry O=C(O)c1nn[nH]c1Oc1cncc(-c2ccccc2)c1 [Example I-262]
6.72

Look up and report measured pIC50 for this entry: O=C(O)c1[nH]nnc1Oc1ccc(-c2ccc(Cl)c(Cl)c2)cc1 [Example I-171]
8.00
